// data source = patent US20260130907A1

Assay: Metabolic stability in human liver microsome
Format: in vitro ADME
Conditions: pH 7.4; human liver microsomes with NADPH, 37° C., 0-60 min
Could you please report measured microsomal CLint at 1 µM for the items listed next?
Give bare numbers, in µL/min/mg.

Recorded microsomal CLint at 1 µM, per entry:
C[C@@H]1C[C@H](C)CN(c2ncc(Cl)c(Nc3ccc4c(c3)n(CCC(C)(C)O)c(=O)n4C)n2)C1 [Cmp B] ... 30
CNC(=O)COc1cc2cc(Nc3nc(N4C[C@H](C)C[C@H](C)C4)ncc3Cl)ccc2n(C)c1=O [BI-3802] ... 23.8

Next molecule, please.
Input line: Which value of microsomal CLint at 1 µM has been reported for C[C@@H]1CN(c2ncc(Cl)c(Nc3ccc4c(c3)n(CCC(C)(C)O)c(=O)n4C)n2)C[C@H](C)C1(F)F [CCT-369260] in the records?
Output line: 12.3

====

Test: Kinetic solubility
Assay type: physicochemical
Details: aqueous buffer, kinetic from dmso stock; 50 mM phosphate buffer pH 7.4; 24 hours at room temperature; read-out: Kinetic solubility @pH 7.4
property: solubility kinetic at 24 h

Field: example entries. Status: answers known.
C[C@@H]1CN(c2ncc(Cl)c(Nc3ccc4c(c3)n(CCC(C)(C)O)c(=O)n4C)n2)C[C@H](N)C1(F)F [Compound 1] ... 108 µM
CNC(=O)COc1cc2cc(Nc3nc(N4C[C@H](C)C[C@H](C)C4)ncc3Cl)ccc2n(C)c1=O [BI-3802] ... < 1.56 µM
C[C@@H]1CN(c2ncc(Cl)c(Nc3ccc4c(c3)n(CCC(C)(C)O)c(=O)n4C)n2)C[C@H](C)C1(F)F [CCT-369260] ... < 1.56 µM

I need solubility kinetic at 24 h for every entry listed below, if you could help.
1. C[C@@H]1C[C@H](C)CN(c2ncc(Cl)c(Nc3ccc4c(c3)n(CCC(C)(C)O)c(=O)n4C)n2)C1 [Cmp B]
2. C[C@@H]1CN(c2ncc(Cl)c(Nc3ccc4c(c3)n(CCC(C)(C)O)c(=O)n4C)n2)C[C@H](CN)C1(F)F (single isomer, unassigned) [Compound 2a]
3. CNC(=O)COc1cc2cc(Nc3nc(N4C[C@@H](C)C(F)(F)[C@@H](C)C4)ncc3Cl)ccc2n(C)c1=O [Cmp A]
4. CNC(=O)COc1cc2cc(Nc3nc(N4C[C@H](CCN)C(F)(F)[C@H](C)C4)ncc3Cl)ccc2n(C)c1=O (single isomer, unassigned) [Compound 51a]

Output line:
1: < 1.56 µM; 2: 266 µM; 3: < 1.56 µM; 4: < 1.56 µM

====

Assay: Kinetic solubility
Type: physicochemical
Settings: FaSSIF, kinetic from dmso stock; read-out: Kinetic solubility (FaSSIF)
property: solubility kinetic at 24 h (µM)
Answers are plain numbers, in µM.

Please review the following examples before continuing.
C[C@@H]1CN(c2ncc(Cl)c(Nc3ccc4c(c3)n(CCC(C)(C)O)c(=O)n4C)n2)C[C@H](N)C1(F)F ... 208
CNC(=O)COc1cc2cc(Nc3nc(N4C[C@H](CCN)C(F)(F)[C@H](C)C4)ncc3Cl)ccc2n(C)c1=O (single isomer, unassigned) [Compound 51a] ... 6.35
C[C@@H]1CN(c2ncc(Cl)c(Nc3ccc4c(c3)n(CCC(C)(C)O)c(=O)n4C)n2)C[C@H](C)C1(F)F ... 2.92

# context switch: different molecule, same solubility kinetic at 24 h
Input line: Which solubility kinetic at 24 h value belongs to `CNC(=O)COc1cc2cc(Nc3nc(N4C[C@H](C)C[C@H](C)C4)ncc3Cl)ccc2n(C)c1=O` ?
Output line: 2.97

====

Assay: Kinetic solubility
Type: physicochemical
Details: FeSSIF, kinetic from dmso stock; read-out: Kinetic solubility (FeSSIF)
Decide by solubility kinetic at 24 h: equal to or exceeding 200 µM means Y, less means N.

Worked examples, 5 compounds total:
C[C@@H]1C[C@H](C)CN(c2ncc(Cl)c(Nc3ccc4c(c3)n(CCC(C)(C)O)c(=O)n4C)n2)C1 ... Y
CNC(=O)COc1cc2cc(Nc3nc(N4C[C@H](CCN)C(F)(F)[C@H](C)C4)ncc3Cl)ccc2n(C)c1=O (single isomer, unassigned) [Compound 51a] ... N
CNC(=O)COc1cc2cc(Nc3nc(N4C[C@H](C)C[C@H](C)C4)ncc3Cl)ccc2n(C)c1=O ... N
C[C@@H]1CN(c2ncc(Cl)c(Nc3ccc4c(c3)n(CCC(C)(C)O)c(=O)n4C)n2)C[C@H](C)C1(F)F ... Y
C[C@@H]1CN(c2ncc(Cl)c(Nc3ccc4c(c3)n(CCC(C)(C)O)c(=O)n4C)n2)C[C@H](N)C1(F)F ... Y

Now for a further compound.
Input line: Record `CNC(=O)COc1cc2cc(Nc3nc(N4C[C@@H](C)C(F)(F)[C@@H](C)C4)ncc3Cl)ccc2n(C)c1=O` ; criterion: solubility kinetic at 24 h no lower than 200 µM. Met?
Output line: N

====

Would you kindly list microsomal CLint at 1 µM for each of these compounds?
Test: Metabolic stability in human liver microsome
Assay type: in vitro ADME
Details: pH 7.4; human liver microsomes with NADPH, 37° C., 0-60 min

C[C@@H]1CN(c2ncc(Cl)c(Nc3ccc4c(c3)n(CCC(C)(C)O)c(=O)n4C)n2)C[C@H](N)C1(F)F ... < 6.1 µL/min/mg

Please give microsomal CLint at 1 µM for each item listed below.
1. CNC(=O)COc1cc2cc(Nc3nc(N4C[C@H](CCN)C(F)(F)[C@H](C)C4)ncc3Cl)ccc2n(C)c1=O (single isomer, unassigned) [Compound 51a]
2. CNC(=O)COc1cc2cc(Nc3nc(N4C[C@@H](C)C(F)(F)[C@@H](C)C4)ncc3Cl)ccc2n(C)c1=O
3. C[C@@H]1CN(c2ncc(Cl)c(Nc3ccc4c(c3)n(CCC(C)(C)O)c(=O)n4C)n2)C[C@H](CN)C1(F)F (single isomer, unassigned)

Output line:
["< 6.1 µL/min/mg", "< 3.7 µL/min/mg", "< 6.1 µL/min/mg"]
